Collected total protein half-life in vivo values appear next to each entry.
assay: total protein half-life in vivo (active degradation + dilution); higher = more stable protein; conditions: E. coli NCM3722 delta-smpB; growth: N-lim chemostat; doubling time 6 h
property_name: total protein half-life in vivo (h)

sequence_data="MMIRERIEEKLRAAFQPVFLEVVDESYRHNVPAGSESHFKVVLVSDRFTGERFLNRHRMIYSTLAEELSTTVHALALHTYTIKEWEGLQDTVFASPPCRGAGSIA [P0ABE2]" endpoint_result=1.55
sequence_data=MKLISNDLRDGDKLPHRHVFNGMGYDGDNISPHLAWDDVPAGTKSFVVTCYDPDAPTGSGWWHWVVVNLPADTRVLPQGFGSGLVAMPDGVLQTRTDFGKTGYDGAAPPKGETHRYIFTVHALDIERIDVDEGASGAMVGFNVHFHSLASASITAMFS endpoint_result=5.96
sequence_data=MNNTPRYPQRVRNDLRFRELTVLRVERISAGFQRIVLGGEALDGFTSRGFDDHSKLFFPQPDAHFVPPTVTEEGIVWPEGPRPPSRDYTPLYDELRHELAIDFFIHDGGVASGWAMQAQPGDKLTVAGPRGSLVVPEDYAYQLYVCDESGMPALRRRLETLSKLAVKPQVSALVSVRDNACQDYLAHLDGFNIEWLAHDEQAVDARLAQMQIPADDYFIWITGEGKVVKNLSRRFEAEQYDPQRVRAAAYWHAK endpoint_result=4.11
sequence_data="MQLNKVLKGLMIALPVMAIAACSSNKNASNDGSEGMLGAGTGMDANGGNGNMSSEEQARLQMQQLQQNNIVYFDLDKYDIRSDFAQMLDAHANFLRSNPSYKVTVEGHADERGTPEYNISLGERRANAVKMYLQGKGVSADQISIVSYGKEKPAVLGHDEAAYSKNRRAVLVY [P0A912]" endpoint_result=5.44
